- test_name: in vivo
- experimental_context: Wistar, rat, iv, 2 mg/kg
quantity: clearance (mL/min/kg)
Just the number please, in mL/min/kg, no unit attached.

- structure: "COc1cc2ncnc(Nc3cc(Cl)ccc3F)c2cc1OCCCN1CCOCC1"
  clearance (mL/min/kg): 16

Note: attention shifts to another entry.
Ask: Identify measured clearance corresponding to `COc1cc2ncnc(Nc3cccc(Cl)c3F)c2cc1OCCCN1CCOCC1`
Reply: 29

----------
- test_name: AUC in nude mouse xenografted with human LoVo cell at 50 mg/kg, po, twice daily
- Type: ADME, organism-based
- Set-up: dose 50 mg/kg
- experimental_context: in vivo
quantity: AUC
Kindly format the answer as number then unit.

Ask: Identify measured AUC corresponding to `COc1cc2ncnc(Nc3cccc(Cl)c3F)c2cc1OC1CCN(S(C)(=O)=O)CC1`
Reply: 286 µM·h
